# reported inhibition; entries follow
species on record: Homo sapiens; assay: Inhibition of PRKACA(PKA) (unknown origin) at 5.5 uM by Caliper Mobility Shift Assay

Please indicate inhibition recorded for CC(=O)Nc1cc(-c2c(-c3ccc(F)cc3)nc(S/C=C\C(=O)O)n2C2CC2)ccn1 < 50%

Supply inhibition value. Item: COC(Cn1c(SC2CCC(C(=O)O)CC2O)nc(-c2ccc(F)cc2)c1-c1ccnc(NC(C)=O)c1)OC (stereo not given) < 50%

Respond only with inhibition recorded for CC(=O)Nc1cc(-c2c(-c3ccc(F)cc3)nc(S/C=C\C(=O)O)n2C2CCCCC2)ccn1 < 50%

Note inhibition for the compound shown: CC(=O)Nc1cc(-c2c(-c3ccc(F)cc3)nc(Sc3cccc(I)n3)n2C2CCCCC2)ccn1 < 50%

Kindly review the next compound as well.
Look up and state reported inhibition for CC(=O)Nc1cc(-c2c(-c3ccc(F)cc3)nc(S/C=C\C(=O)O)n2CC2CCCO2)ccn1 (racemic) < 50%
